target: F protein of RSV strain A2 (infectious virus) (human respiratory syncytial virus …, UniProt P03420 26-574); assay: cell-based or functional assay
Sequence (P03420 26-574): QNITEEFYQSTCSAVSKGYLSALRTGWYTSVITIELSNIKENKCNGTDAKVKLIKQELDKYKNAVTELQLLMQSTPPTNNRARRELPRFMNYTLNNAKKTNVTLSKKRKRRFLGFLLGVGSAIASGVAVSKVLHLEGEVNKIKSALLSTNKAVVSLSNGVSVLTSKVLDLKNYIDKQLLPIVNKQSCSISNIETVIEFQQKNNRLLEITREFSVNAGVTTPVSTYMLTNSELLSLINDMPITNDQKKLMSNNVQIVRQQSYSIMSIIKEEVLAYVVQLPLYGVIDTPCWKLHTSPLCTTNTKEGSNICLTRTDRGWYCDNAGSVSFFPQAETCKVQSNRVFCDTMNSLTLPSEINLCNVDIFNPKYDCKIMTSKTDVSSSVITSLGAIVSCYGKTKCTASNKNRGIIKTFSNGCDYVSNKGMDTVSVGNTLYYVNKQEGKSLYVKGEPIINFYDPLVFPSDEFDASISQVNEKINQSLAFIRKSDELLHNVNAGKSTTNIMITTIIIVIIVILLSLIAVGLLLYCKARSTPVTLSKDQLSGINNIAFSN
Could you please report measured Neutralization IC50, plaque-reduction assay for the items listed next?

Asked: For the binder hRSV12 (antibody, V domains shown) VH: QVQLVQSGAEVKKPGTSVRVSCKTSGYNFMNYGIYWVRQAPGQGLEWVGWISAYNGQTDRAQKFQGRVTMTTDISTNTGYMDLRSLRSDDTAVYFCARGPPVIAAVSLEYWGRGTLVTVSS VL: EVVMTQSPLSLPVTLGQPASISCKSSQSLVHSNGDTYLNWFQQRPGQSPRRLIYKVSNRDSGVPDRFSGSGSGTDFTLKISRVETEDVGVYYCMQATHWPGSFGQGTKLEIK , what Neutralization IC50, plaque-reduction assay is on record?
Given back: 0.141 µg/mL

Asked: Likewise for hRSV90 (antibody, V domains shown, also called mAb hRSV90) VH: EVQLVESGGGLVQPRRSLRLSCAASGFTFDDYTIHWVRQAPGKGLEWVSGITWNSGYIGYADSVKGRFTISRDNARNSLYLQMNSLRAEDTALYYCVRDAYVSGSDYYYYGLDVWGRGTLVTVSS VL: EIVMTSSPATLSVSPGERATLFCRASQSVISNLAWYQQKSGQAPRLLIYGASTRATGIPARFSGSGSGTEFTLTISSLQSEDFAVYFCQQYNNWPLTFGGGTQVNVQ ?
Given back: 0.015 µg/mL

Asked: Likewise for hRSV75 (antibody, V domains shown) VH: EVQLVESGGGLVKPGGSLRLSCAASGFTFRSYSMNWVRQAPGKGLEWVSSITSSSSYIDYADSVKGRFTISRDNAKNSLYLQMNSLRAEDTAVYYCARAYCGGDCSVDHFQHWGQGTLVTVSS VL: QSVLTQPPSVSGAPGQRVTISCTGSSSNIGAGYDVHWYQHLPGTAPKLLIYVNSNRPSGVPDRFSASKSGTSASLAITGLQAEDEADYYCQSYDKSLSGFYVFGTGTKVTVL ?
Given back: 0.129 µg/mL
